Recorded values, source paper PMC5511190.

- SYSTEM_NAME: GST-LRRK2 WD40 G2385R (human) (UniProt Q5S007)
- Sequence (Q5S007 whole entry G2385R, the tested form may be a part): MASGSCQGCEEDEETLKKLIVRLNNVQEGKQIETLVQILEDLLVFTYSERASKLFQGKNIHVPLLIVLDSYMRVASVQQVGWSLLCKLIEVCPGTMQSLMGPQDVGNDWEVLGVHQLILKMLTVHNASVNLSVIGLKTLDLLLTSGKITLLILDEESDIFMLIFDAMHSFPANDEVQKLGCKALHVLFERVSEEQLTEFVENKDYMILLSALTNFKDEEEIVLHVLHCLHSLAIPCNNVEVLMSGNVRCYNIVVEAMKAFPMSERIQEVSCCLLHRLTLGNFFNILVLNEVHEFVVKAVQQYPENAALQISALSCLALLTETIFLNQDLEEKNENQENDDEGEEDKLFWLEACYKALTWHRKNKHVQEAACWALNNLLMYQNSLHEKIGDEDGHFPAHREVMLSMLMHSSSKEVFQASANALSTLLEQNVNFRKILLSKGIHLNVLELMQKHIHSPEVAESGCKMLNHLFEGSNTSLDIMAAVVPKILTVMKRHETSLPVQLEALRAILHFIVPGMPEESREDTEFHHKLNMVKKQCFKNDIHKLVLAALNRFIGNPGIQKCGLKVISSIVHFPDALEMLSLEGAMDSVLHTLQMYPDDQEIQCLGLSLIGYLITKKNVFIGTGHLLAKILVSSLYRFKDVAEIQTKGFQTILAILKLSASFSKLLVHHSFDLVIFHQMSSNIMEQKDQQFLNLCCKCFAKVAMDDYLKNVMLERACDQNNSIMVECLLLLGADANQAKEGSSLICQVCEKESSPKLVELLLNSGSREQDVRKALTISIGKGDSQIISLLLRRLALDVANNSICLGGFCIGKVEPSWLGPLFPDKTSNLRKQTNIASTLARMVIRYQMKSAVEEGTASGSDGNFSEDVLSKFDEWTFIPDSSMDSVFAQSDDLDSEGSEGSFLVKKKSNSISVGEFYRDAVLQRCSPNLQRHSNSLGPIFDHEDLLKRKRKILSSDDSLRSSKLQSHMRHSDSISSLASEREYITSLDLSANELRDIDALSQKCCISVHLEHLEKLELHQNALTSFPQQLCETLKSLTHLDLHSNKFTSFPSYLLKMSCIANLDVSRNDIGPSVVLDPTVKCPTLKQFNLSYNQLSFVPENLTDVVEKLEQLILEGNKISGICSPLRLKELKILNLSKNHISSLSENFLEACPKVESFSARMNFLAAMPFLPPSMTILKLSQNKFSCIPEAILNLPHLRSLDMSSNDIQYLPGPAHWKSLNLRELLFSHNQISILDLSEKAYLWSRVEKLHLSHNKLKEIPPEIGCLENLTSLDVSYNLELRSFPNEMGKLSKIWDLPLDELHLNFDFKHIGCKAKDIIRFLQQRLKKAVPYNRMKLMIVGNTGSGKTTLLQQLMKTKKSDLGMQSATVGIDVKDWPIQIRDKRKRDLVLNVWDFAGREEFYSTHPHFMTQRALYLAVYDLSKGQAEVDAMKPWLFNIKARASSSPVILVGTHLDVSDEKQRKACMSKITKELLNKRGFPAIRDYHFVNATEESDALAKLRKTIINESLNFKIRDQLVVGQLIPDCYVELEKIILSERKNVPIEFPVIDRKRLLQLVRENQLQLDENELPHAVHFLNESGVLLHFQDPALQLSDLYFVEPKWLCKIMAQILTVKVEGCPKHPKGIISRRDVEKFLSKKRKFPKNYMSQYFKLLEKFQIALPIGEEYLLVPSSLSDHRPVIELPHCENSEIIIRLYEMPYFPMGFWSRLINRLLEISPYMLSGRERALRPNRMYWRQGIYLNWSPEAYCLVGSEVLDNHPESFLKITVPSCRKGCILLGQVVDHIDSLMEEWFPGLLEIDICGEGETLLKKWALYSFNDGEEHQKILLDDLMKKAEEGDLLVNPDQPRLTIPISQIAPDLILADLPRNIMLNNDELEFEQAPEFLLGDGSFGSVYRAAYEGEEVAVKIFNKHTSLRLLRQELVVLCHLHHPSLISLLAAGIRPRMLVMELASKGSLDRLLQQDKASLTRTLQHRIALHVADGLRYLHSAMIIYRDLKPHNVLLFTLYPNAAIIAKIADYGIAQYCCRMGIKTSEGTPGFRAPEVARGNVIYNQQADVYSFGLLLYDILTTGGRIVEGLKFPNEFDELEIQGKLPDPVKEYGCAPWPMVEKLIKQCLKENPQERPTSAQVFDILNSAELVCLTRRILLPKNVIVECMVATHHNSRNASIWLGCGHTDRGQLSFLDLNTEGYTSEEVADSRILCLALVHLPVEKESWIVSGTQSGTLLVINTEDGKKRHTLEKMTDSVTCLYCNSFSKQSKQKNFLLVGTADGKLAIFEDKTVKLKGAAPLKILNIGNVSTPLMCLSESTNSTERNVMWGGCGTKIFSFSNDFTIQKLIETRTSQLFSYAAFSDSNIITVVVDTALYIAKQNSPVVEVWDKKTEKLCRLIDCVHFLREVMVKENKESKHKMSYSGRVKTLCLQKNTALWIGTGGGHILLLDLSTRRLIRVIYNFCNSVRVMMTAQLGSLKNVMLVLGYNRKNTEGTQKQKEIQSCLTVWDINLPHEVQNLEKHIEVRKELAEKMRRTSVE
- ASSAY_PROCEDURE: affinity purification with mass spectrometry; 5 µg GST fusion protein on glutathione-Sepharose incubated with adult mouse brain lysate or crude SV fraction (LP2) (1 mg protein) 2 h at 4 °C; washes 150 mM NaCl, 2 mM EDTA, 50 mM Tris-HCl, 0.2% Triton, pH 7.4; LC-MS/MS with label-free quantification, 4 samples per condition (GST-control, GST-WD40, GST-WD40-G2385R)
Entries and their G2385R/WT (ratio of abundance in G2385R versus wild-type bait) values follow.
Form: value (number only, do not type unit).

# count of solved cases: 2
| BINDER | OBSERVED |
| --- | --- |
| 14-3-3 protein beta/alpha (natural protein) MTMDKSELVQKAKLAEQAERYDDMAAAMKAVTEQGHELSNEERNLLSVAYKNVVGARRSSWRVISSIEQKTERNEKKQQMGKEYREKIEAELQDICNDVLELLDKYLILNATQAESKVFYLKMKGDYFRYLSEVASGENKQTTVSNSQQAYQEAFEISKKEMQPTHPIRLGLALNFSVFYYEILNSPEKACSLAKTAFDEAIAELDTLNEESYKDSTLIMQLLRDNLTLWTSENQGDEGDAGEGEN | 0.37 |
| Profilin-2 (natural protein) MAGWQSYVDNLMCDGCCQEAAIVGYCDAKYVWAATAGGVFQSITPVEIDMIVGKDREGFFTNGLTLGAKKCSVIRDSLYVDGDCTMDIRTKSQGGEPTYNVAVGRAGRVLVFVMGKEGVHGGGLNKKAYSMAKYLRDSGF | 0.37 |

Then this binder:
Entry 14-3-3 protein eta (natural protein) MGDREQLLQRARLAEQAERYDDMASAMKAVTELNEPLSNEDRNLLSVAYKNVVGARRSSWRVISSIEQKTMADGNEKKLEKVKAYREKIEKELETVCNDVLALLDKFLIKNCNDFQYESKVFYLKMKGDYYRYLAEVASGEKKNSVVEASEAAYKEAFEISKEHMQPTHPIRLGLALNFSVFYYEIQNAPEQACLLAKQAFDDAIAELDTLNEDSYKDSTLIMQLLRDNLTLWTSDQQDEEAGEGN — recorded G2385R/WT (ratio of abundance in G2385R versus wild-type bait) = 0.52
